studyTarget: Peptide 5: Biotin-…-[Tyr(PC)]-acid
Sequence (peptide, as listed by the source): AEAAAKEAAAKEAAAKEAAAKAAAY
assayMethodText: scFv ELISA
valueKind: OD450 (OD450)

>>> experimentalvalue("PcOxP_DB01_D10 (scFv, V domains shown, scFv in periplasmic extract) VH: EVQLLESGGGLVQPGGSLRLSCAASGFTDSDFYMEWVRQAPGKGLEWVAASRNKANDYTTEYADSVKGRFTISRDNSKNTLYLQMNSLRAEDTAVYYCARDYYGSSYWYFDVWGQGTLVTVSS VL: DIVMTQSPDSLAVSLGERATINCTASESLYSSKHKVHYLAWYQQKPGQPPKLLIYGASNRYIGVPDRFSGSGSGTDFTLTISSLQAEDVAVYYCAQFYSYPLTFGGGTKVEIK")
0.44
>>> experimentalvalue("PcOxP_DB01_C03 (scFv, V domains shown, scFv in periplasmic extract) VH: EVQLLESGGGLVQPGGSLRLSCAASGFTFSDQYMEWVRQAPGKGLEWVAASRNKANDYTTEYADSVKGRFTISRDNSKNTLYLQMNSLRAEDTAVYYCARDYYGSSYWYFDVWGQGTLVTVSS VL: DIQMTQSPSSLSASVGDRVTITCTASESLYSSKHKVHYLAWYQQKPGKAPKLLIYGASNRYIGVPSRFSGSGSGTDFTLTISSLQPEDFATYYCAQFYQYPLTFGGGTKVEIK")
1.37
>>> experimentalvalue("PcOxP_DB04_D05 (scFv, V domains shown, scFv in periplasmic extract) VH: EVQLLESGGGLVQPGGSLRLSCAASGFTFSDYYMEWVRQAPGKGLEWVAASRNVANDYTTEYADSVKGRFTISRDNSKNTLYLQMNSLRAEDTAVYYCARDYYGSSYWYFDVWGQGTLVTVSS VL: DIVMTQSPDSLAVSLGERATINCTASTSLYSSKHKVHYLAWYQQKPGQPPKLLIYGASNRYIGVPDRFSGSGSGTDFTLTISSLQAEDVAVYYCAQFYSYPLTFGGGTKVEIK")
1.27
>>> experimentalvalue("PcOxP_DB03_G09 (scFv, V domains shown, scFv in periplasmic extract) VH: EVQLLESGGGLVQPGGSLRLSCAASGFSFSDFYMEWVRQAPGKGLEWVAASRNKWNDYTTEYADSVKGRFTISRDNSKNTLYLQMNSLRAEDTAVYYCARDYYGSSYWYFDVWGQGTLVTVSS VL: DIVMTQSPDSLAVSLGERATINCTASESLYSSKHKVHYLAWYQQKPGQPPKLLIYGASNRYIGVPDRFSGSGSGTDFTLTISSLQAEDVAVYYCASFYSYPLTFGGGTKVEIK")
1.07
>>> experimentalvalue("PcOxP_DB03_B01 (scFv, V domains shown, scFv in periplasmic extract) VH: EVQLLESGGGLVQPGGSLRLSCAASGFTFSSYYMEWVRQAPGKGLEWVAASRNTANDYTTEYADSVKGRFTISRDNSKNTLYLQMNSLRAEDTAVYYCARDYYGSSYWYFDVWGQGTLVTVSS VL: DIVMTQSPDSLAVSLGERATINCTASESLYSSKHKVHYLAWYQQKPGQPPKLLIYGASNREIGVPDRFSGSGSGTDFTLTISSLQAEDVAVYYCAQFYSYPLTFGGGTKVEIK")
0.64
